- Tested on: PRMT1 (protein arginine N-methyltransferase 1)
- protocol summary: PRMT1 binders on small-molecule microarrays, primary screen, biochemical, small-molecule microarray, 635 nm fluorescence (AID 1088);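 further: binding of Prmt1 protein to compounds spotted on small-molecule microarray slides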
- assay conditions: small-molecule microarray binding, higher = more signal
measurement name: composite z-score

compound: CCOc1cc(C(O)C2C=CC3C(=O)N(c4ccccc4)C(=O)C3N2Nc2ccc(C#N)cc2)ccc1O (stereo not drawn)
measurement name: composite z-score
test result: 0.0034

Entry COCCOC(=O)N1C(=O)[C@@]2(c3cc(C#CC4=CCCCC4)ccc31)[C@H](c1ccc(OCCO)cc1)N1[C@H](c3ccccc3)[C@H](c3ccccc3)OC(=O)[C@H]1[C@@H]2C(=O)NC[C@H](O)c1ccccc1 ; composite z-score = 1.54

Entry CC(C)N1CC=CC23O[C@@H]4C=CCOC(=O)[C@@H]4[C@H]2C(=O)N(CCCO)[C@@H]3C1=O (stereo partly drawn) ; composite z-score = 0.943

* * *

- protocol summary: PSAC antagonists in infected red cells, primary screen, cell-based, P. falciparum Indochina, OD700, 1 h (AID 1154)
- assay conditions: P. falciparum Indochina infected RBC osmotic lysis, higher = more signal, called active from +8 up or from −8 down
measurement name: z-score
Quick one: just the number, no unit, thanks!

Entry CCCCC=C[C@@H](NC(=O)c1ccc(-c2ccccc2)cc1)c1ccccc1 ; z-score = 2.54

Entry Cc1cc(C)cc(N2C(=O)CSC2c2cccc([N+](=O)[O-])c2)c1 (configuration not stated) ; z-score = 0.385

Entry C=C(CCCC)/C(=C/C[C@@H](OC(=O)c1ccncc1)c1ccccc1OCCO)c1cnc2ccccc2c1 ; z-score = 20.2

Entry Cn1cccc1C(O)C1C=CC2C(=O)NC(=O)C2N1Nc1ccc(Cl)cc1Cl (configuration not stated) ; z-score = 2.16

Entry C=CCOC(=O)[C@H]1[C@@H]2C(=O)O[C@@H](c3ccccc3)[C@@H](c3ccccc3)N2[C@@H](c2ccc(OCCOC(=O)[C@@H]3C[C@@H]4C(=O)N[C@@H](CCCCNC(C)=O)C(=O)N4[C@@H]3c3ccc(O)cc3)cc2)[C@]12C(=O)Nc1ccc(I)cc12 ; z-score = 1.33

Entry CN(C)C(=O)C1N=C(c2ccc(OCCCO)cc2)N(c2ccccc2)O1 (configuration not stated) ; z-score = 18.3

Entry NC(=O)NCC#Cc1ccc2c(c1)[C@]1(C(=O)N2)[C@H](C(=O)NC[C@H](O)c2ccccc2)[C@H]2C(=O)O[C@H](c3ccccc3)[C@H](c3ccccc3)N2[C@@H]1c1ccc(OCCO)cc1 ; z-score = 4.47

* * *

- protocol summary: A549 cell viability effects, profiling panel, calcein-AM fluorescence, 48 h, basal (AID 1162); further: test concentration not given here
- assay conditions: higher = more signal
Hi, to clarify the labels: yes (1) covers z-score from -0.3 upward, no (0) covers anything below -0.3.

Hi, just wondering whether COCCOC(=O)N1C(=O)[C@@]2(c3cc(C#CCNC(N)=O)ccc31)[C@H](C(=O)N1CCc3cc(OC)c(OC)cc3C1)[C@H]1C(=O)O[C@H](c3ccccc3)[C@H](c3ccccc3)N1[C@@H]2c1ccccc1OCCO shows z-score of -0.3 or higher.
yes (1)

Hi, just wondering whether CCOC(=O)C1=CC[C@@H](c2ccc(OCc3ccccc3)c(OC)c2)N(S(=O)(=O)c2ccc(C)cc2)[C@H]1c1ccc(SC)cc1 shows z-score of -0.3 or higher.
no (0)

Hi, just wondering whether NC(=O)N1C(=O)C2C(C1=O)C1C=C(CCCO)C2C(c2cccs2)N1Cc1cccc(OC(F)(F)F)c1 (stereo not drawn) shows z-score of -0.3 or higher.
yes (1)

Hi, just wondering whether COc1ccc([Si](C)(C)[C@H]2[C@H](CC(=O)N(CCO)Cc3ccccc3)O[C@@]3(C(=O)N(Cc4cccc(N5CCOC5=O)c4)c4ccccc43)[C@@H]2C)cc1 shows z-score of -0.3 or higher.
no (0)

Hi, just wondering whether COc1ccc(CCNC(=O)[C@@]2(Sc3ccc(C)cc3)CC(=O)N(C3Cc4ccccc4C3)[C@@H]2c2ccc(CO)cc2)cc1 shows z-score of -0.3 or higher.
no (0)

Hi, just wondering whether O=C1NC(=O)C2C1C=CC(C(O)c1c(F)cccc1Cl)N2Nc1ccc(Cl)cc1Cl (stereo not drawn) shows z-score of -0.3 or higher.
no (0)

Hi, just wondering whether OCC1CC(c2ccccc2)=NO1 (stereo not drawn) shows z-score of -0.3 or higher.
yes (1)

Hi, just wondering whether NC(=O)NCC#Cc1ccc2c(c1)[C@]1(C(=O)N2)[C@H](C(=O)NC[C@H](O)c2ccccc2)[C@H]2C(=O)O[C@H](c3ccccc3)[C@H](c3ccccc3)N2[C@@H]1c1ccc(OCCO)cc1 shows z-score of -0.3 or higher.
no (0)

FYI, the data here is from PubChem BioAssay.
